These data points were gathered from patent US10159687B2.

# MEASUREMENT NOTES: Light stability in ethyl acetate (HPLC % area)
# Type: physicochemical
# RUN CONDITIONS: in ethyl acetate, after 19 hrs of light exposure (ordinary room lighting)
Recorded After 19 hrs % (content as % area of the total peak area) values for a group of molecules are listed next.
VALUE TYPE: After 19 hrs % (content as % area of the total peak area) (%)

| MOLECULE | UNIT OF MEASUREMENT | NUMERIC READOUT |
| --- | --- | --- |
| CC(C)=CCC/C(C)=C/CC/C(C)=C/CC/C(C)=C/CC/C(C)=C/CC/C(C)=C/CC/C(C)=C/CC1=C(C)C(=O)c2ccccc2C1=O [MK-7, reference compound] | % | 53.7 |
| CC(C)=CCC/C(C)=C/CC/C(C)=C/CC/C(C)=C/CC/C(C)=C/CC/C(C)=C/CC/C(C)=C/Cc1c(C)c(OC(=O)c2ccccc2)c2ccccc2c1OC(=O)c1ccccc1 | % | 95.4 |
| CCC(=O)Oc1c(C)c(C/C=C(\C)CC/C=C(\C)CC/C=C(\C)CC/C=C(\C)CC/C=C(\C)CC/C=C(\C)CCC=C(C)C)c(OC(=O)CC)c2ccccc12 | % | 97.7 |
| CC(C)=CCC/C(C)=C/CC/C(C)=C/CC/C(C)=C/CC/C(C)=C/CC/C(C)=C/CC/C(C)=C/Cc1c(C)c(OC(=O)c2ccccc2)c2ccccc2c1O | % | 87.6 |
| CC(C)=CCC/C(C)=C/CC/C(C)=C/CC/C(C)=C/CC/C(C)=C/CC/C(C)=C/CC/C(C)=C/Cc1c(C)c(O)c2ccccc2c1OC(=O)c1ccccc1 | % | 71.2 |

----------
# MEASUREMENT NOTES: Light stability in MCT oil (HPLC % area)
# Assay type: physicochemical
# RUN CONDITIONS: start

| COMPOUND | Start purity from CoA (%) |
| --- | --- |
| CC(C)=CCC/C(C)=C/CC/C(C)=C/CC/C(C)=C/CC/C(C)=C/CC/C(C)=C/CC/C(C)=C/Cc1c(C)c(OC(=O)c2ccccc2)c2ccccc2c1O | 91.5 |
| CC(C)=CCC/C(C)=C/CC/C(C)=C/CC/C(C)=C/CC/C(C)=C/CC/C(C)=C/CC/C(C)=C/Cc1c(C)c(OC(=O)c2ccccc2)c2ccccc2c1OC(=O)c1ccccc1 | 98.5 |
| CCC(=O)Oc1c(C/C=C(\C)CC/C=C(\C)CC/C=C(\C)CC/C=C(\C)CC/C=C(\C)CC/C=C(\C)CCC=C(C)C)c(C)c(OC(=O)CCNC(=O)OC(C)(C)C)c2ccccc12 | 92 |
| CCOP(=O)(OC/C=C(\C)CC/C=C(\C)CC/C=C(\C)CC/C=C(\C)CC/C=C(\C)CC/C=C(\C)CCC=C(C)C)Oc1c(CC)c(C)c(OC(=O)c2ccccc2)c2ccccc12 (stereo not shown) | 86.7 |
| CCOP(=O)(OCC)Oc1c(C)c(C/C=C(\C)CC/C=C(\C)CC/C=C(\C)CC/C=C(\C)CC/C=C(\C)CC/C=C(\C)CCC=C(C)C)c(OC(=O)CC)c2ccccc12 | 90.7 |
| CCC(=O)Oc1c(C/C=C(\C)CC/C=C(\C)CC/C=C(\C)CC/C=C(\C)CC/C=C(\C)CC/C=C(\C)CCC=C(C)C)c(C)c(OC(=O)[C@@H](NC(=O)OC(C)(C)C)C(C)C)c2ccccc12 | 93.5 |
| CCC(=O)Oc1c(C)c(C/C=C(\C)CC/C=C(\C)CC/C=C(\C)CC/C=C(\C)CC/C=C(\C)CC/C=C(\C)CCC=C(C)C)c(OC(=O)CC)c2ccccc12 | 98.5 |
| CC(C)=CCC/C(C)=C/CC/C(C)=C/CC/C(C)=C/CC/C(C)=C/CC/C(C)=C/CC/C(C)=C/Cc1c(C)c(O)c2ccccc2c1OC(=O)c1ccccc1 | 93.3 |
| CC(C)=CCC/C(C)=C/CC/C(C)=C/CC/C(C)=C/CC/C(C)=C/CC/C(C)=C/CC/C(C)=C/CC1=C(C)C(=O)c2ccccc2C1=O [MK-7, reference compound] | 99 |
| CC(C)=CCC/C(C)=C/CC/C(C)=C/CC/C(C)=C/CC/C(C)=C/CC/C(C)=C/CC/C(C)=C/Cc1c(C)c(OC(=O)c2ccc(C(F)(F)F)cc2)c2ccccc2c1OC(=O)c1ccc(C(F)(F)F)cc1 | 90.2 |
